Target: Ras-related C3 botulinum toxin substrate 1 (Homo sapiens) (UniProt P63000)
Assay: activated Rac1 mutant nucleotide binding changes – biochemical, bead-based flow cytometry, multiplex, fluorescent GTP, primary screen (AID 764)
Settings: GST-Rac1 activated beads, at 10 µM, actives lie on both sides, 100% means binding = to untreated wells
In all, about 190,000 compounds went through this assay and about 220 (0.12%) were called active. About 2% were inconclusive and are not listed.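 How the source made its calls: active means GTP binding at least 20 percentage points away from the 100% baseline, in either direction, so actives lie on both sides; inconclusive means Compound likely fluorescent itself, or too few beads counted; inactive means the rest.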 The list comes from a sample in which actives are over-represented; it also holds close analogues and randomly drawn compounds.
Give your call using only these classes: active, inactive

In this assay, the call recorded for `COc1ccc(C(=O)/C=C/c2ccc(OC3CSC3)cc2)cc1` was what?
inactive

Query: recorded result category for `CSc1ncccc1C(=O)NC1CCCCCC1` in this test
inactive

Could you please tell me the result logged for `COc1ccc(/C=C/C(=O)c2cc(Br)ccc(=O)c2O)cc1` in this assay?
active

Dear colleague, could you share the recorded outcome for `CCNC(=O)c1ccc(OCC(=O)Nc2ccc(F)cc2)c(OC)c1` when you have a moment?
inactive

Please share the test call associated with `COc1ccc(N2CCN(C(=O)CCSCc3ccccc3F)CC2)cc1` .
inactive

Hi team, can someone confirm the assay call for `COc1ccc(N(CC(=O)Nc2ccc(C)cc2C)S(=O)(=O)c2ccccc2[N+](=O)[O-])c(OC)c1` ?
inactive

I would be grateful if you could indicate the recorded call for `COc1c(F)c(F)c(C(=O)O)c(Nc2ccccc2C)c1F` .
inactive

Dear all, I need the recorded test outcome for `CN1C=CC=C/C1=C1\SC(=S)N(Cc2ccccc2)C1=O` , thank you.
inactive

Please indicate how the test categorized `CSc1nsc(SC)c1NC(=O)OC1CCCCC1` .
active

Per the records of this test, what outcome belongs to `COc1ccc(NC(=O)c2c(SC)nsc2SC)cc1` ?
inactive

How did this test come out for `Cc1ccc(NC(=S)NC(=O)c2ccc(-c3ccccc3)cc2)c(C)c1` ?
inactive

====

Biological target: Ras-related C3 botulinum toxin substrate 1 (Homo sapiens) (UniProt P63000)
Assay: activated Rac1 mutant nucleotide binding changes – biochemical, bead-based flow cytometry, multiplex, fluorescent GTP, primary screen (AID 764)
Settings: GST-Rac1 activated beads, at 10 µM, actives lie on both sides, 100% means binding = to untreated wells
About 220 (0.12%) of roughly 190,000 compounds were called active. Not shown: some 2% with an inconclusive outcome.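 Rule for the calls: active = GTP binding at least 20 percentage points away from the 100% baseline, in either direction, so actives lie on both sides; inconclusive = Compound likely fluorescent itself, or too few beads counted; inactive = the rest.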 For the sample, actives were picked, then their nearest neighbours and some compounds at random.
Just give me one of these, please: active, inactive

Given `O=C(O)/C=C/c1cn(-c2ccccc2)nc1-c1cccs1` , state the outcome it received in this test.
inactive

How was `COc1ccc(NC(=O)/C(C#N)=C\c2cc(OC)c(OCc3ccc(C(=O)O)cc3)cc2Br)cc1` classified in this test?
inactive

Field: outcome | Entry: COC(=O)C(NS(=O)(=O)c1ccc(F)cc1)c1ccccc1 (stereo not drawn)
inactive

Could you kindly confirm the outcome this assay logged for `O=C(CSc1ccc(-c2ccco2)nn1)NCc1ccc2c(c1)OCO2` ?
inactive

How did this test come out for `COc1ccc(N2CCN(C(C)=C3C(=O)c4ccccc4C3=O)CC2)cc1` ?
inactive

Just curious, what result did `S=C(Nc1ccc(Br)cc1Cl)N1CCC2(CC1)OCCO2` get here?
inactive

What was the test verdict on `O=C1N/C(=C/c2cccs2)C(=O)N1Cc1ccc(F)cc1` ?
inactive

Assay outcome for `CCn1c(SCC(=O)Nc2nccs2)nnc1-c1ccco1` : what was it?
inactive

Tell me the recorded outcome of this test for CC(=O)C1C(c2ccc(Cl)cc2)c2c(n[nH]c2C)CC1(C)O (stereo not drawn) .
inactive

Would you mind telling me which call this test gave `COc1ccc(OC)c(S(=O)(=O)Nc2cccc(-c3ccc4nncn4n3)c2)c1` ?
inactive

Hey, what did the test say about `Cc1cnc(C(=O)OCC(=O)N2CCc3ccccc32)cn1` ?
inactive

Which outcome did this test record for the molecule `Cc1ccc(C)c(NC(=O)CCC(=O)N/N=C2/CC(=O)CC(C)(C)C2)c1` ?
inactive

Hi, do you know how `COc1ccc(S(=O)(=O)N2CCN(C(=O)c3cc(C)oc3C)CC2)cc1` came out in this test?
inactive

What did the test return for `NC(=O)C1CCN(C(=O)COc2cccc3cccnc23)CC1` ?
inactive

Hi, do you know how COC(=O)C1=C(C)N(C)C(=O)NC1c1ccc([N+](=O)[O-])o1 (stereo not drawn) came out in this test?
inactive

For `CCN1CCc2nc(NC(=O)c3cc(F)c(F)cc3Cl)sc2C1` , what call appears in the results of this test?
inactive

Could you kindly confirm the outcome this assay logged for `COc1ccc(NS(=O)(=O)c2cc(NC(=O)C3CCCCC3)ccc2N2CCOCC2)cc1` ?
inactive

Could you kindly confirm the outcome this assay logged for `O=C(O)/C=C/c1cn(Cc2ccccc2)nc1-c1cccs1` ?
active

Called result for `O=C(/C=C\c1cn(-c2ccccc2)nc1-c1cccs1)N1CCOCC1`
inactive

Could you please tell me the result logged for `O=C(CP(=O)(c1ccccc1)c1ccccc1)N1CCOCC1` in this assay?
inactive

Hello, I am checking results. What call was entered for `O=C(CN1CCSCC1)N/N=C/c1ccc(Cl)cc1` ?
inactive

For `CN(C)N(C)C(=O)C(O)(c1ccccc1)c1ccccc1` , which call appears in the assay record?
inactive

Per the assay record, what outcome was assigned to CCC(C)c1ccc(NC(=S)NCc2ccccn2)cc1 (stereo not drawn) ?
inactive

====

Biological target: Ras-related C3 botulinum toxin substrate 1 (Homo sapiens) (UniProt P63000)
Experiment: activated Rac1 mutant nucleotide binding changes – biochemical, bead-based flow cytometry, multiplex, fluorescent GTP, primary screen (AID 764)
Settings: GST-Rac1 activated beads, at 10 µM, actives lie on both sides, 100% means binding = to untreated wells
About 220 (0.12%) of roughly 190,000 compounds were called active. Roughly 2% stayed inconclusive and do not appear here. Only a selection was taken, and actives are over-represented in it overall.
Property: percent activity (GTP binding) (%)
# unit: % | format: bare number

# value lookup — system Ras-related C3 botulinum toxin substrate 1 (Homo sapiens) (UniProt P63000), readout percent activity (GTP binding), item `CN(C)c1ccc2c(=O)[nH][nH]c(=O)c2c1`
99

Please provide the recorded percent activity (GTP binding) for `CNC(=O)COc1ccc(S(=O)(=O)Nc2ccccc2)cc1` , tested on Ras-related C3 botulinum toxin substrate 1 (Homo sapiens) (UniProt P63000).
98

Ras-related C3 botulinum toxin substrate 1 (Homo sapiens) (UniProt P63000) / percent activity (GTP binding) / `Cc1c(Br)c([N+](=O)[O-])nn1CC(=O)N1CCN(Cc2ccccc2)CC1` : value?
98

Recorded percent activity (GTP binding) for `O=C(Nc1ccc2c(c1)C(=O)OC2)Nc1cccc2ccccc12` with Ras-related C3 botulinum toxin substrate 1 (Homo sapiens) (UniProt P63000), please?
96

// map `CC[n+]1c(C)n(-c2ccccc2)c2ccc(NC(C)=O)cc21` to recorded percent activity (GTP binding) (system: Ras-related C3 botulinum toxin substrate 1 (Homo sapiens) (UniProt P63000))
96

Return percent activity (GTP binding) measured with Ras-related C3 botulinum toxin substrate 1 (Homo sapiens) (UniProt P63000) given this molecule: OCCC1CN(Cc2cccc(OC3CCCC3)c2)CCN1Cc1ccsc1 (stereo unspecified)
95

Provide the documented percent activity (GTP binding) with Ras-related C3 botulinum toxin substrate 1 (Homo sapiens) (UniProt P63000) as the system for `COC(=O)CN1C(=O)N/C(=C/c2ccc(OC)c(C)c2OC)C1=O`
96

# get_value(readout= percent activity (GTP binding), system= Ras-related C3 botulinum toxin substrate 1 (Homo sapiens) (UniProt P63000)) for `CCOC(=O)N1CCN(CCC(=O)Nc2cc(OC)ccc2OC)CC1`
96

Requested read-out percent activity (GTP binding), target or system Ras-related C3 botulinum toxin substrate 1 (Homo sapiens) (UniProt P63000), entry `CCS(=O)(=O)c1ccc(O)c(NC(=O)COc2ccc(Cl)cc2)c1`
95

Notebook entry, Ras-related C3 botulinum toxin substrate 1 (Homo sapiens) (UniProt P63000) assay: percent activity (GTP binding) of `Cn1cccc1/C=C1\SC(=O)N(CC(=O)Nc2ccc(F)cc2)C1=O` = ?
95

Look up percent activity (GTP binding) with Ras-related C3 botulinum toxin substrate 1 (Homo sapiens) (UniProt P63000) for this molecule: CCOc1ccc(C(CC(=O)O)n2cnnn2)cc1OC (stereo unspecified)
91

Hello, the source for this data is PubChem BioAssay AID764, in case you need it.
